Where do the numbers come from? From the Deep4Chem optical property database.

- protocol-summary: solvent given as SMILES
- conditions: in ClCCl

>  <molecule>
CCN(CC)c1ccc2c(c1)oc(=O)c1c(=O)oc3c(OC)cccc3c12

>  <unit-spec>
nm

>  <emission maximum>
530

$$$$
>  <molecule>
Cn1c(=O)c(/N=N/c2ccc(S(=O)(=O)O)c3ccccc23)c(O)c2ccccc21

>  <unit-spec>
nm

>  <emission maximum>
541

$$$$
>  <molecule>
C[Si]1(C)c2cc(-c3ccc(-c4cccs4)s3)ccc2C=Cc2ccc(-c3ccc(-c4cccs4)s3)cc21

>  <unit-spec>
nm

>  <emission maximum>
463

$$$$
>  <molecule>
FC(F)(F)c1ccc(-c2ccc(-c3cc(-c4ccccn4)nc(-c4ccccn4)c3)cc2)cc1

>  <unit-spec>
nm

>  <emission maximum>
359

$$$$
>  <molecule>
COc1ccc(/C=C/c2nc(/C=C/c3ccc(N(c4ccccc4)c4ccccc4)cc3)cc(/C=C/c3ccc(N(c4ccccc4)c4ccccc4)cc3)n2)cc1

>  <unit-spec>
nm

>  <emission maximum>
543

$$$$
>  <molecule>
F[B-]1(F)OC(c2ccccc2)=Cc2ccc3ccccc3[n+]21

>  <unit-spec>
nm

>  <emission maximum>
441

$$$$
>  <molecule>
COC(=O)C1=C(C(=O)OC)C2=C[C@H]3c4ccccc4[C@]2(S1)c1ccccc13

>  <unit-spec>
nm

>  <emission maximum>
488

$$$$
>  <molecule>
CC(C)(C)c1ccc(-c2nc3c4ccccc4c4ccccc4c3n2-c2ccc(C(C)(C)C)cc2)cc1

>  <unit-spec>
nm

>  <emission maximum>
392

$$$$
>  <molecule>
C(=C\c1ccc(-c2cccc3ccccc23)s1)/c1ccc(-c2cccc3ccccc23)s1

>  <unit-spec>
nm

>  <emission maximum>
475

$$$$
>  <molecule>
CCc1ccc(C2=[N+]3C(=Cc4c5ccc(OC)cc5c(-c5ccc(CC)s5)n4[B-]3(F)F)c3ccc(OC)cc32)s1

>  <unit-spec>
nm

>  <emission maximum>
780

$$$$
>  <molecule>
N#CSC1=CC2=C(c3ccccc3)c3cc(SC#N)c(N4CCOCC4)n3[B-](F)(F)[N+]2=C1N1CCOCC1

>  <unit-spec>
nm

>  <emission maximum>
630

$$$$
>  <molecule>
CC(C)(C)c1ccc2c(c1)c1cc(C(C)(C)C)ccc1n2-c1ccc(C#Cc2ccc3c4ccc(C#Cc5ccc(-n6c7ccc(C(C)(C)C)cc7c7cc(C(C)(C)C)ccc76)cc5)cc4n(-c4ccc(C(F)(F)F)cc4)c3c2)cc1

>  <unit-spec>
nm

>  <emission maximum>
431

$$$$
>  <molecule>
COc1cc(/C=C/c2nc3ccccc3s2)c(OC)cc1/C=C/c1nc(C)nc(/C=C/c2cc(OC)c(/C=C/c3nc4ccccc4s3)cc2OC)n1

>  <unit-spec>
nm

>  <emission maximum>
502

$$$$
>  <molecule>
COC(=O)c1cc(=O)n(C)c2cc(-c3cc4c5c(c3)CCCN5CCC4)sc12

>  <unit-spec>
nm

>  <emission maximum>
605

$$$$
>  <molecule>
COC(=O)c1cc(=O)n(C)c2cc(-c3ccccc3N(C)C)sc12

>  <unit-spec>
nm

>  <emission maximum>
537

$$$$
>  <molecule>
c1ccc2c(c1)[nH]c1c3[nH]c4ccccc4c3c3nsnc3c21

>  <unit-spec>
nm

>  <emission maximum>
489

$$$$
>  <molecule>
C(=C\c1cnc2ccccc2n1)/c1ccc(N(c2ccccc2)c2ccccc2)cc1

>  <unit-spec>
nm

>  <emission maximum>
565

$$$$
>  <molecule>
COc1ccc(-c2sc3c(-c4ccc(OC)cc4)c4n(c3c2-c2ccc(OC)cc2)[B-](F)(F)[N+]2=Cc3c(-c5ccc(OC)cc5)c5sc(-c6ccc(OC)cc6)c(-c6ccc(OC)cc6)c5n3[B-](F)(F)[N+]2=C4)cc1

>  <unit-spec>
nm

>  <emission maximum>
648

$$$$
>  <molecule>
COc1ccc(/C=C/C2=[O+][B-](F)(F)OC(/C=C/c3ccc(OC)cc3)=C2c2ccccc2)cc1

>  <unit-spec>
nm

>  <emission maximum>
554

$$$$
>  <molecule>
C(#Cc1nc(C#Cc2cccs2)c(C#Cc2cccs2)c(C#Cc2cccs2)c1C#Cc1cccs1)c1cccs1

>  <unit-spec>
nm

>  <emission maximum>
441

$$$$
>  <molecule>
Cc1ccc(C)n1-c1cccc(C#N)c1

>  <unit-spec>
nm

>  <emission maximum>
504

$$$$
>  <molecule>
Fc1ccc(C2=[N+]3C(=Nc4c5ccccc5c(-c5ccc(F)cc5)n4[B-]3(F)F)c3ccccc32)cc1

>  <unit-spec>
nm

>  <emission maximum>
724

$$$$
>  <molecule>
Cc1cn2cc(-c3ccc([N+](=O)[O-])cc3)[n-][n+]2c1

>  <unit-spec>
nm

>  <emission maximum>
575

$$$$
>  <molecule>
CC(C)(C)C1CCC(=CS/C=C/c2ccc(-c3ccc(/C=C/SC=C4CCC(C(C)(C)C)CC4)cc3)cc2)CC1 (stereo unspecified)

>  <unit-spec>
nm

>  <emission maximum>
432

$$$$
>  <molecule>
Cn1c(=O)cc(C(=O)c2ccccc2)c2sc(-c3ccc(N(c4ccccc4)c4ccccc4)cc3)cc21

>  <unit-spec>
nm

>  <emission maximum>
635

$$$$
>  <molecule>
CCCCCCn1c2cc(C=C(C#N)C#N)sc2c2sc3c(sc4c5sc(C=C(C#N)C#N)cc5n(CCCCCC)c43)c21

>  <unit-spec>
nm

>  <emission maximum>
620

$$$$

* * *

- protocol-summary: solvent given as SMILES
- conditions: in CCO

>  <line-notation>
CC(C)[Si]1(C(C)C)c2cc(C=C(C#N)C#N)ccc2-c2ccc(N(C)C)cc21

>  <emission maximum (nm)>
691

$$$$
>  <line-notation>
N#Cc1ncc(-c2c3ccccc3c(-c3cnc(C#N)nc3)c3ccccc23)cn1

>  <emission maximum (nm)>
520

$$$$
>  <line-notation>
CC1(C)CC(/C=C/c2ccc(-n3c4ccccc4c4ccccc43)cc2)=CC(=C(C#N)C#N)C1

>  <emission maximum (nm)>
583

$$$$

* * *

- protocol-summary: solvent given as SMILES
- conditions: in C1CCOC1

>  <line-notation>
CC(=O)c1ccc(-c2cnc3nn4ccccc4c3n2)cc1

>  <emission maximum (nm)>
455

$$$$
>  <line-notation>
CCCCCCOc1ccc(-c2cnc(-c3nnc(-c4ccc(OCCCCCC)cc4)o3)o2)cc1

>  <emission maximum (nm)>
386

$$$$
>  <line-notation>
Cc1ccc(C)n1-c1ccc(C#N)cc1

>  <emission maximum (nm)>
501

$$$$

* * *

Parameter emission maximum: see the listing below.
- protocol-summary: solvent given as SMILES
- conditions: in CN(C)C=O
quantity-measured: emission maximum (nm)

>  <line-notation>
CCn1c2ccccc2c2c3nsnc3c3c4ccccc4n(CC)c3c21

>  <value>
500

$$$$
>  <line-notation>
CC[n+]1ccc(/C=C/c2cc(OC)c(C=O)cc2OC)cc1

>  <value>
565

$$$$
>  <line-notation>
C(=C\c1ccc(-c2nnc(-c3ccc(/C=C/c4ccc(-c5nc(-c6ccccc6)c(-c6ccccc6)[nH]5)cc4)cc3)o2)cc1)/c1ccc(-c2nc(-c3ccccc3)c(-c3ccccc3)[nH]2)cc1

>  <value>
524

$$$$
>  <line-notation>
O=C1c2ccc3c4ccc5c6c(ccc(c7ccc(c2c37)C(=O)N1c1ccc(Cl)cc1)c64)C(=O)N(c1ccc(Cl)cc1)C5=O

>  <value>
534

$$$$
>  <line-notation>
CCOC(=O)c1sc(SC)c2c(=O)n(C)nnc12

>  <value>
487

$$$$
>  <line-notation>
c1ccc(-c2nn(-c3ccccc3)c3nc4ccccc4cc23)cc1

>  <value>
476.64

$$$$
>  <line-notation>
CCOC(=O)/C(C#N)=C\c1cn(-c2ccccc2)nc1-c1ccccc1

>  <value>
434

$$$$

* * *

Each entry below carries its reported emission maximum.
- protocol-summary: solvent given as SMILES
- conditions: in ClCCl

>  <line-notation>
C[n+]1ccc(/C=C/c2ccc(N(c3ccccc3)c3ccc(/C=C/c4cc[n+](C)cc4)cc3)cc2)cc1

>  <emission maximum>
502 nm

$$$$
>  <line-notation>
O=c1c2cc(-n3c4ccccc4c4ccccc43)ccc2sc2ccc(-n3c4ccccc4c4ccccc43)cc12

>  <emission maximum>
495 nm

$$$$
>  <line-notation>
c1ccc(-c2ccc3c4ccc(-c5ccccc5)c5c(-c6ccccc6)ccc(c6cccc2c63)c54)cc1

>  <emission maximum>
500 nm

$$$$

* * *

Each entry below lists one item and its recorded emission maximum value.
- protocol-summary: solvent given as SMILES
- conditions: in Cc1ccccc1

>  <line-notation>
c1ccc(N(c2ccccc2)c2c3ccccc3cc3ccccc23)cc1

>  <emission maximum / nm>
489

$$$$
>  <line-notation>
CCCCCCCCn1nnc(-c2ccc(C#Cc3ccc(C#Cc4ccc(-c5nnn(CCCCCCCC)n5)cc4)c4nc5c6ccccc6c6ccccc6c5nc34)cc2)n1

>  <emission maximum / nm>
488

$$$$
>  <line-notation>
O=C1c2ccc(-c3ccc(N(c4ccc(-c5ccccc5)cc4)c4ccc(-c5ccccc5)cc4)cc3)cc2C(=O)c2ccc(-c3ccc(N(c4ccc(-c5ccccc5)cc4)c4ccc(-c5ccccc5)cc4)cc3)cc21

>  <emission maximum / nm>
608

$$$$
>  <line-notation>
CC(C)(C)c1ccc2c(c1)c1cc(C(C)(C)C)ccc1n2-c1ccccc1-c1nccnc1C#N

>  <emission maximum / nm>
490

$$$$
>  <line-notation>
CCCCCCc1cc2/c(=C(\C#N)C(=O)OC)s/c(=c3/s/c(=C(/C#N)C(=O)OC)c4cc(CCCCCC)sc34)c2s1

>  <emission maximum / nm>
605

$$$$
